metric name: melting point

CC1(c2ccc(F)c(C(=O)NC3=CC(Cl)CC=N3)c2)CCSC(N)=N1 (stereo not shown) ... 132 to 134 °C
CC1(c2ccc(F)c(N3N=C4c5cc(Cl)ccc5NCC4C3=O)c2)CCSC(N)=N1 (stereo not shown) ... 290 to 295 °C
C[C@]1(c2ccccc2)C[C@@H](c2ccccc2)SC(N)=N1.Cl ... 161 to 165 °C

Find the recorded melting point belonging to COc1ccc([C@]2(C)N=C(N)SC[C@H]2C)cc1 and report it. 214 to 217 °C

Entry CC1(C2=CC=CCC2)CCCSC(N)=N1.Cl (stereo not shown) please 223 to 225 °C

Entry CC1(C2=CC=C(F)CC2)CCCSC(N)=N1.Cl (stereo not shown) please 219 to 222 °C

###

Examples of compounds with documented melting point follow.

C[C@]1(c2ccccc2)C[C@H](c2ccccc2)SC(N)=N1 (racemic) ... 139 to 140 °C
CC1(c2cccc(NC(=O)c3ncc(Cl)cn3)c2)CCSC(N)=N1 (centres unmarked) ... 204 to 208 °C
CC1(c2ccccc2)CCN=C(N)S1.Cl (centres unmarked) ... 205 to 206 °C

Find the recorded melting point belonging to C[C@@]1(C2C=C(NC(=O)c3ncc(Cl)cc3N)C=CC2)CCSC(N)=N1 (some centres unmarked) and report it. 148 to 150 °C

Entry CCS/C(N)=N\C(C)C1C=C(NC(=O)c2cnc3ccccc3n2)C=CC1 (centres unmarked) please 167 to 170 °C

###

Examples of compounds with documented melting point follow.

Find the recorded melting point belonging to COc1ccc([C@@]2(C)C[C@H](C)SC(N)=N2)cc1 and report it. 141 to 142 °C

Entry Cc1ccc(OC2=CCC(C3(C)CCSC(N)=N3)C=C2)cc1 (centres unmarked) please 162 to 165 °C

Entry CC1(c2cccc(NC(=O)C3CN=CC=N3)c2)CCSC(N)=N1 (centres unmarked) please 91 to 96 °C

Entry CC1(c2cccc(CO)c2)CCSC(N)=N1 (centres unmarked) please 155 to 158 °C

Entry CC1(c2cc(NC(=O)c3ccc(Cl)cn3)cc(C(F)(F)F)c2)C=C(N)SCC1 (centres unmarked) please 185 to 187 °C

###

Examples of molecules with documented melting point follow.

Study these solved cases before continuing.
COC(=O)c1cc(C(=O)Nc2cccc(C3(C)CCSC(N)=N3)c2)nn1C (stereo not shown) ... 164 to 187 °C
C[C@@]1(c2cc(NC(=O)c3n[nH]c4ccccc34)ccc2F)CCSC(N)=N1 ... 187 to 190 °C
CC1(c2ccc(OC3C=CC=CC3)cc2)CCSC(N)=N1 (stereo not shown) ... 169 to 170 °C

Continue with the next molecule.
Find the recorded melting point belonging to CC1(C2C=C(/C=N/OCc3cccnc3)C=CC2)CCSC(N)=N1 (stereo not shown) and report it. 152 to 153 °C
